The values you see were collected from ChEMBL document CHEMBL3132848.

Measured IC50, listed per entry for reference.
# experimental_details: Inhibition of alpha-mannosidase in jack bean after 30 mins by spectrophotometric analysis
# Set-up: species or system Canavalia ensiformis

N=C(NCCCOCC12CC3CC(CC(C3)C1)C2)N1C[C@H](O)[C@@H](O)[C@H](O)[C@H]1CO    > 1000 µM

### Prompt // Input: CCCCNC(=N)N1C[C@H](O)[C@@H](O)[C@H](O)[C@H]1CO . Output its IC50 only.
### Response 113 µM

### Prompt // Input: N=C(NCc1ccccc1)N1C[C@H](O)[C@@H](O)[C@H](O)[C@H]1CO . Output its IC50 only.
### Response > 1000 µM

### Prompt // Input: CCCCCCN1C[C@H](O)[C@@H](O)[C@H](O)[C@H]1CO . Output its IC50 only.
### Response > 1000 µM

### Prompt // Input: N=C(NCCO)N1C[C@H](O)[C@@H](O)[C@H](O)[C@H]1CO . Output its IC50 only.
### Response > 1000 µM

### Prompt // Input: N=C(NCCCc1ccccc1)N1C[C@H](O)[C@@H](O)[C@H](O)[C@H]1CO . Output its IC50 only.
### Response > 1000 µM

### Prompt // Input: OC[C@H]1NC[C@H](O)[C@@H](O)[C@@H]1O . Output its IC50 only.
### Response > 1000 µM

### Prompt // Input: CCCCCCCCNC(=N)N1C[C@H](O)[C@@H](O)[C@H](O)[C@H]1CO . Output its IC50 only.
### Response 55 µM

### Prompt // Input: N=C(NCCOCCO)N1C[C@H](O)[C@@H](O)[C@H](O)[C@H]1CO . Output its IC50 only.
### Response > 1000 µM

### Prompt // Input: CCCCNC(=O)N1C[C@H](O)[C@@H](O)[C@H](O)[C@H]1CO . Output its IC50 only.
### Response > 1000 µM

====

# experimental_details: Inhibition of alpha-glucosidase in yeast after 30 mins by spectrophotometric analysis
# Parameters: species or system Saccharomyces cerevisiae
measured_property: pIC50
Just so you know, pIC50 here is -log10 of the concentration in molar units; reply with that number alone.

Examples from the recorded data:
CCCCCCN1C[C@H](O)[C@@H](O)[C@H](O)[C@H]1CO    3.87
CCCCCCCCNC(=N)N1C[C@H](O)[C@@H](O)[C@H](O)[C@H]1CO    4.51
CCCCNC(=N)N1C[C@H](O)[C@@H](O)[C@H](O)[C@H]1CO    4.70
N=C(NCCCOCC12CC3CC(CC(C3)C1)C2)N1C[C@H](O)[C@@H](O)[C@H](O)[C@H]1CO    3.88
N=C(NCCO)N1C[C@H](O)[C@@H](O)[C@H](O)[C@H]1CO    3.88
N=C(NCCOCCO)N1C[C@H](O)[C@@H](O)[C@H](O)[C@H]1CO    3.60

// below: pIC50 requested for another compound
### Prompt // Input: OC[C@H]1NC[C@H](O)[C@@H](O)[C@@H]1O [DUVOGLUSTAT] . Output its pIC50 only.
### Response 3.78

====

A short record of pIC50 observed with Beta-galactosidase (Bos taurus, UniProt Q58D55) follows.
Sequence (Q58D55 whole entry): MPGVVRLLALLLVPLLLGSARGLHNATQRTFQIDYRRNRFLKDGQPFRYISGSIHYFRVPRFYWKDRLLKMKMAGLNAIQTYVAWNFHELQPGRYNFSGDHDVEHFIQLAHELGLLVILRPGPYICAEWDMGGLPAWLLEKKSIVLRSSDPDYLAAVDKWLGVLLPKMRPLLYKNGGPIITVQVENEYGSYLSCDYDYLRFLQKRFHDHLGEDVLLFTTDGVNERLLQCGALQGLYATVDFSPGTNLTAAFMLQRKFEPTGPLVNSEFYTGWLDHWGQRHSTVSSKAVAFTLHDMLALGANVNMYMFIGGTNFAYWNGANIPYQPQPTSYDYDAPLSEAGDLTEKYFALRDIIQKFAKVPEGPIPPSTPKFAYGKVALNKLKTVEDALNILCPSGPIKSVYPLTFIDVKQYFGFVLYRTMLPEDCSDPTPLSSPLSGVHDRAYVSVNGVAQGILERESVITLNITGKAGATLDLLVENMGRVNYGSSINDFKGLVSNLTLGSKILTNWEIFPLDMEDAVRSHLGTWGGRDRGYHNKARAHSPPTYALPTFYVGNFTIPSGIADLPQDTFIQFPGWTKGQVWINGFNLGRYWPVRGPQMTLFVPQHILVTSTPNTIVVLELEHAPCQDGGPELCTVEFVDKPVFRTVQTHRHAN
Just so you know, pIC50 here is -log10 of the concentration in molar units; reply with that number alone.

Examples from the recorded data:
N=C(NCCCOCC12CC3CC(CC(C3)C1)C2)N1C[C@H](O)[C@@H](O)[C@H](O)[C@H]1CO    5.27
N=C(NCCCc1ccccc1)N1C[C@H](O)[C@@H](O)[C@H](O)[C@H]1CO    5.21

// below: pIC50 requested for another compound
### Prompt Report the value of pIC50 obtained on Beta-galactosidase (Bos taurus, UniProt Q58D55) for CCCCNC(=N)N1C[C@H](O)[C@@H](O)[C@H](O)[C@H]1CO .
### Response 4.82
